procedureDetails: IV pharmacokinetics, Beagle dog
Format: in vivo
assayContext: both, beagle, dog, plasma, iv, 20 mg/kg
quantity: Cmax (µM)
Number in µM, nothing else.

Query :: Requested read-out: Cmax. Entry: CN[C@@H](C)C(=O)N[C@H](C(=O)N1CCC[C@H]1C(=O)Nc1snnc1-c1ccccc1)C1CCCCC1 [Compound 1]
Result :: 30

----------
procedureDetails: Human pharmacokinetics, Phase Ia study
Assay type: in vivo
assayContext: human, plasma, iv
quantity: clearance (mL/min/kg)
Number in mL/min/kg, nothing else.

Query :: Requested read-out: clearance. Entry: CN[C@@H](C)C(=O)N[C@H](C(=O)N1CCC[C@H]1C(=O)Nc1snnc1-c1ccccc1)C1CCCCC1 [Compound 1]
Result :: 9
